# Tested on: Surinam grass
# assay_overview: Test B pre-/postemergence herbicide test
# Type: in vivo, Urochloa decumbens
# condition: 125 g ai/ha; visual rating, scale 0 (no effect) to 100 (complete control); postemergence
# Protocol: […] At the same time, plants selected from these crop and weed species and also blackgrass (Alopecurus myosuroides Huds.), wheat (Triticum aestivum L.) and wild oat (Avena fatua L.) were treated with postemergence applications of test chemicals formulated in the same manner. […] Treated plants and controls were maintained in a greenhouse for 13 to 15 days, after which time all species were compared to controls and visually evaluated. […]
readout_name: Surinam Grass plant response rating
Please respond with just the number, no unit label.

Short answer on Surinam grass for CCNC(=O)c1ccc(F)c(NC(=O)c2nn(C(C)C)nc2C)c1 , Surinam Grass plant response rating: 0

Short answer on Surinam grass for CCNC(=O)c1cccc(NC(=O)c2nn(C(C)C)nc2CC)c1 , Surinam Grass plant response rating: 10

Short answer on Surinam grass for CCn1nc(C(C)(C)C)cc1C(=O)Nc1cncc(C(=O)N2CC=CC2)n1 , Surinam Grass plant response rating: 0

Short answer on Surinam grass for C#CCNC(=O)c1cncc(NC(=O)c2cc(C(C)(C)C)nn2CC)n1 , Surinam Grass plant response rating: 0

Short answer on Surinam grass for CCNC(=O)c1ccc(F)c(NC(=O)c2cc(C3(C)CC3)nn2CC)c1 , Surinam Grass plant response rating: 10

Short answer on Surinam grass for CCn1nc(C(C)(C)C)cc1C(=O)Nc1ccc(OC)c(OC)c1 , Surinam Grass plant response rating: 20

Short answer on Surinam grass for CCc1nn(C(C)(C)CC)nc1C(=O)Nc1cccc(OC(F)(F)F)c1 , Surinam Grass plant response rating: 10

Short answer on Surinam grass for CCc1nn(C(C)C)nc1C(=O)Nc1cccc(C(=O)N2CCCCC2)c1 , Surinam Grass plant response rating: 0

---

# Test system: wheat
# assay_overview: Test B postemergence herbicide test
# Assay type: in vivo, Triticum aestivum
# Design: key: 0 = no effect, 100 = complete control
# condition: Postemergence, 500 g ai/ha; scale 0 (no effect) to 100 (complete control)
readout_name: Wheat plant response rating
Please respond with just the number, no unit label.

Data point: Cc1nn(C(C)(C)C)nc1C(=O)Nc1cccc(C(=O)N(C)C)n1 [Compound 436] ; Wheat plant response rating = 20

Data point: CCN(C(C)=O)C(=O)c1ccc(F)c(NC(=O)c2cc(C(C)(C)C)nn2CC)c1 [Compound 413] ; Wheat plant response rating = 10

Data point: C=CCN(CC=C)C(=O)c1cccc(NC(=O)c2nn(C(C)(C)C)nc2CC)c1 [Compound 415] ; Wheat plant response rating = 30

---

# System: lambsquarters
# assay_overview: Test B pre-/postemergence herbicide test
# Assay type: in vivo, Chenopodium album
# condition: 500 g ai/ha; visual rating 0-100, 0 no effect, 100 complete control; preemergence
readout_name: Plant response rating, Lambsquarters
Please respond with just the number, no unit label.

Short answer on lambsquarters for CC(=O)c1cccc(NC(=O)c2cc(C(C)(C)C)nn2CCF)c1 , Plant response rating, Lambsquarters: 70

Short answer on lambsquarters for CC(C)(C)c1cc(C(=O)Nc2cccc(SC(F)(F)F)c2)n(CCF)n1 , Plant response rating, Lambsquarters: 90

Short answer on lambsquarters for CCn1nc(C(C)(C)C)cc1C(=O)Nc1cc(C(=O)NCC2CC2)ccn1 , Plant response rating, Lambsquarters: 100

Short answer on lambsquarters for CCOC(=O)c1cccc(NC(=O)c2sc(C(C)(C)C)nc2CC)c1 , Plant response rating, Lambsquarters: 0

Short answer on lambsquarters for CC(=O)c1cccc(NC(=O)c2cc(C(C)(C)C)nn2CC(F)(F)F)c1 , Plant response rating, Lambsquarters: 90

Short answer on lambsquarters for CCNC(=O)c1cccc(NC(=O)c2nn(C(C)(C)C)cc2C(F)(F)F)c1 , Plant response rating, Lambsquarters: 80
